# measuredOn: human full length PDE3B (Homo sapiens (Human))
# Sequence (Q13370 whole entry): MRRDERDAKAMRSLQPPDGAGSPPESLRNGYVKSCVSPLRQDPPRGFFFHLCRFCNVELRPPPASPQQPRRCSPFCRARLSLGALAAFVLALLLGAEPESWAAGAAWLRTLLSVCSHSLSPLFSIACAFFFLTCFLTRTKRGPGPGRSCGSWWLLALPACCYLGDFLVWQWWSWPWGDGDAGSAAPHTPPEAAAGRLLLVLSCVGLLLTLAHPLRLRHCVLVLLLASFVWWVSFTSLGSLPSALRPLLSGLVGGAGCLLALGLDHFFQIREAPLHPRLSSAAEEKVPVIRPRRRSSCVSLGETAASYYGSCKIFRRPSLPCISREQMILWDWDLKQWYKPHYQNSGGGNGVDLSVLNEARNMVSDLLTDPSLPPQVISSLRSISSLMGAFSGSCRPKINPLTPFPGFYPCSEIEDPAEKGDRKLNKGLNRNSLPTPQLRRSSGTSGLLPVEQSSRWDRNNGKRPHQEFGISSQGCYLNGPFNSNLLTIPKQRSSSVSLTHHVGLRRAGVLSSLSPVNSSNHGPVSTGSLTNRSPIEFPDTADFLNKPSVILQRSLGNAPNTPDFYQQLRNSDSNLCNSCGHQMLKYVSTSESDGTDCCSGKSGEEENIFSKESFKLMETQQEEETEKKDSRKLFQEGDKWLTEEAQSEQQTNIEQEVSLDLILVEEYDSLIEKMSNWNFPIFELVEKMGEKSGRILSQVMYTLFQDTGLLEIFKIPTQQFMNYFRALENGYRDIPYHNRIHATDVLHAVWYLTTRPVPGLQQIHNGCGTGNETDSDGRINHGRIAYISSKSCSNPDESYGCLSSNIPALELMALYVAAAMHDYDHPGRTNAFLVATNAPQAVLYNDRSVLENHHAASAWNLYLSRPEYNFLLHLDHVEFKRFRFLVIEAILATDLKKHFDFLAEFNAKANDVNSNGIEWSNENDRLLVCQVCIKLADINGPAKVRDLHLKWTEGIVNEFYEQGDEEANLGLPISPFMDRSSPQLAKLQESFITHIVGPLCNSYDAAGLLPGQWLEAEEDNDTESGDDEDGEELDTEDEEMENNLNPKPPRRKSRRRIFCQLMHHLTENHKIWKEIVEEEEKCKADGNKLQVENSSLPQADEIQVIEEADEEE
pIC50: −log10 of the molar value.
Response key: YES means pIC50 >= 7; NO means pIC50 < 7.

Solved cases below.
Does pIC50 meet or surpass 7 for Cn1cc(-c2ccc(C3=NNC(=O)OC3)cc2C(F)(F)F)c(C(F)(F)F)n1 [Example 127] ? YES

For this compound, is measured pIC50 7 or higher? O=C1NN=C(c2ccc(-c3cc(F)c(F)c(F)c3)c(C(F)(F)F)c2)CO1 [Example 58] NO

State whether the measured pIC50 reaches 7, counting equality as reaching it, for O=C1NN=C(c2ccc(-c3ccc(C(F)(F)F)nc3)c(C(F)(F)F)c2)CO1 [Example 36] NO

***
Does the reported pIC50 for O=C1NN=C(c2ccc(-c3cccc(F)c3)c(C(F)(F)F)c2)CO1 [Example 138] fall at or above the 7 mark? NO

In plain terms: is recorded pIC50 at least 7 for CC(C)(C)OC(=O)NCCNc1ccc(C2=NNC(=O)OC2)cc1C(F)(F)F [Intermediate 67] ? YES

Threshold query (pIC50 >= 7) on C[C@@H]1OC(=O)NN=C1c1ccc(-c2ccccc2C#N)c(C(F)(F)F)c1 [Example 172] NO

Can O=C1CCC(CNc2ccc(C3=NNC(=O)OC3)cc2C(F)(F)F)CN1 (racemic) [Example 247] be said to have pIC50 at or above 7? NO

Form field: pIC50 at least 7? Entry: O=C1NN=C(c2ccc(N[C@H]3CCC[C@H]3O)c(C(F)(F)F)c2)CO1 [Example 261] NO

Could you verify whether the entry CC1OC(=O)NN=C1c1cc(F)c(N2CCOCC2)c(F)c1 (racemic) [Example 17] shows pIC50 of no less than 7? YES
